Give Percentage of motility inhibition 0 h for every item shown.
Test system: C. elegans
Assay Conditions: Table S2, C. elegans SS assay, 110 μM, 0 h, averages of 4 data points
Dear colleague, please return just the value in %, with no unit written.

Prompt: I have this compound here, O=C1CCCC2C3CCC[N+]4([O-])CCCC(CN12)C34 (stereo not shown) [Oxysophoridine] , and I need its recorded Percentage of motility inhibition 0 h.
Completion: 18

Prompt: I have this compound here, C[C@@H](O)[C@H]1C(=O)N2C(C(=O)O)=C(S[C@@H]3CN[C@H](CNS(N)(=O)=O)C3)[C@H](C)[C@H]12.O [Doripenem (monohydrate)] , and I need its recorded Percentage of motility inhibition 0 h.
Completion: 15

Prompt: I have this compound here, COc1ccc2c(c1OC)O[C@H]1c3ccc(O[C@@H]4O[C@H](CO)[C@@H](O)[C@H](O)[C@H]4O)cc3OC[C@@H]21 [Methylnissolin‐3‐O‐glucoside] , and I need its recorded Percentage of motility inhibition 0 h.
Completion: 8

Prompt: I have this compound here, CC1=CC23C(=O)C(C=C4COC(C)(C)OC4C24OC(C)(C)OC14)C1C(CC3C)C1(C)C (stereo not shown) [Ingenol-3,4,5,20-diacetonide] , and I need its recorded Percentage of motility inhibition 0 h.
Completion: 1

Prompt: I have this compound here, COc1ccc([C@@H]2CC(=O)c3c(O)cc(O)cc3O2)cc1O (racemic) [(Rac)‐Hesperetin] , and I need its recorded Percentage of motility inhibition 0 h.
Completion: 0

Prompt: I have this compound here, CC1=C(CO)C(C)(C)CCC1 [β-Cyclogeraniol] , and I need its recorded Percentage of motility inhibition 0 h.
Completion: 15

Prompt: I have this compound here, C[C@H]1CC[C@@H]2N(C1)C[C@H]1[C@@H]3C[C@H]4[C@@H](CC(=O)[C@H]5C[C@H](O)CC[C@@]54C)[C@@H]3CC[C@H]1[C@]2(C)O [Yubeinine] , and I need its recorded Percentage of motility inhibition 0 h.
Completion: 13

====

System: C. elegans
Assay Conditions: Table S2, C. elegans SS assay, 110 μM, 0 h, averages of 4 data points
Give Percentage of motility inhibition 0 h for every item shown.
Dear colleague, please return just the value in %, with no unit written.

Prompt: I have this molecule here, C[N+](C)(C)CCO.O=C([O-])C(O)C(O)C(=O)O (stereo not shown) [Choline (bitartrate)] , and I need its recorded Percentage of motility inhibition 0 h.
Completion: 0

Prompt: I have this molecule here, Cl.Clc1ccc(Cn2c(CN3CCCC3)nc3ccccc32)cc1 [Clemizole (hydrochloride)] , and I need its recorded Percentage of motility inhibition 0 h.
Completion: 25

Prompt: I have this molecule here, CNCC(O)c1ccc(O)cc1 (stereo not shown) [p‐Synephrine] , and I need its recorded Percentage of motility inhibition 0 h.
Completion: 13

Prompt: I have this molecule here, `CC1(C)CC[C@]2(C(=O)O[C@@H]3O[C@H](CO)[C@@H](O)[C@H](O)[C@H]3O)[C@H](O)C[C@]3(C)C(=CC[C@@H]4[C@@]5(C)CC[C@H](O[C@@H]6O[C@H](CO)[C@@H](O)[C@H](O)[C@H]6O)C(C)(C)[C@@H]5CC[C@]43C)[C@@H]2C1` , and I need its recorded Percentage of motility inhibition 0 h.
Completion: 35

====

Give inhibition at 110 µM for every item shown.
System: C. elegans
Protocol: microbe, parasite or virus in culture
Assay Conditions: Caenorhabditis elegans, 0 h, read-out: Percentage of motility inhibition 0 h, Table S2, C. elegans SS assay, 110 μM, 0 h, averages of 4 data points
Dear colleague, please return just the value in %, with no unit written.

Prompt: I have this compound here, `COc1ccc2c(c1O)-c1c(OC)c(OC)cc3c1[C@H](C2)N(C)CC3` , and I need its recorded inhibition at 110 µM.
Completion: 0

Prompt: I have this compound here, CCCCC[C@H](O)CC(=O)CCc1ccc(O)c(OC)c1 [[6]‐Gingerol] , and I need its recorded inhibition at 110 µM.
Completion: 1

Prompt: I have this compound here, `O=C1C(O)=C([C@H]2CC[C@H](c3ccc(Cl)cc3)CC2)C(=O)c2ccccc21` , and I need its recorded inhibition at 110 µM.
Completion: 18

Prompt: I have this compound here, `C=C[C@H]1CN2CC[C@@]3(C(=O)Nc4ccccc43)[C@@H]2C[C@@H]1/C(=C\OC)C(=O)OC` , and I need its recorded inhibition at 110 µM.
Completion: 0

Prompt: I have this compound here, `COc1ccc2c(O[C@@H]3C[C@H]4C(=O)N[C@]5(C(=O)NS(=O)(=O)C6CC6)C[C@H]5/C=C\CCCCN(C)C(=O)[C@@H]4C3)cc(-c3nc(C(C)C)cs3)nc2c1C` , and I need its recorded inhibition at 110 µM.
Completion: 2

Prompt: I have this compound here, `COc1ccc([C@@H]2CC(=O)c3c(O)cc(O)cc3O2)cc1O` , and I need its recorded inhibition at 110 µM.
Completion: 21

Prompt: I have this compound here, O=C(Nc1ccccc1)c1ccccc1O [Salicylanilide] , and I need its recorded inhibition at 110 µM.
Completion: 43

Prompt: I have this compound here, C[C@]1(OC(=O)/C=C/c2ccccc2)C[C@@H](O)[C@]2(O)C=CO[C@@H](O[C@@H]3O[C@H](CO)[C@@H](O)[C@H](O)[C@H]3O)[C@@H]21 [Harpagoside] , and I need its recorded inhibition at 110 µM.
Completion: 9

====

Tested on: C. elegans
Assay Conditions: Table S2, C. elegans SS assay, 110 μM, 0 h, averages of 4 data points
Measured Endpoint: Percentage of motility inhibition 0 h (%)
Dear colleague, please return just the value in %, with no unit written.

Prompt: Look up Percentage of motility inhibition 0 h with C. elegans for this compound: COc1cc(/C=C/C(=O)[O-])ccc1O.[Na+] [Ferulic acid (sodium)]
Completion: 10

Prompt: Look up Percentage of motility inhibition 0 h with C. elegans for this compound: COc1ccc(-c2cc(=O)c3c(O)cc(O[C@@H]4O[C@H](C(=O)O)[C@@H](O)[C@H](O)[C@H]4O)cc3o2)cc1O [DiosMetin 7‐O‐β‐D‐Glucuronide]
Completion: 4

Prompt: Look up Percentage of motility inhibition 0 h with C. elegans for this compound: CC(=O)O[C@H](CC(=O)O)C[N+](C)(C)C.[Cl-] [Acetyl‐L‐carni tine (hydrochloride)]
Completion: 12

Prompt: Look up Percentage of motility inhibition 0 h with C. elegans for this compound: CC(=O)O[C@@]12CO[C@@H]1C[C@H](O[C@@H]1OC[C@@H](O)[C@H](O)[C@H]1O)[C@@]1(C)C(=O)[C@H](O)C3=C(C)[C@@H](OC(=O)[C@H](O)[C@@H](NC(=O)c4ccccc4)c4ccccc4)C[C@@](O)([C@@H](OC(=O)c4ccccc4)[C@H]21)C3(C)C [10-Deacetyl-7-xylosyl paclitaxel]
Completion: 0

====

Give inhibition at 110 µM for every item shown.
Tested on: C. elegans
Protocol: microbe, parasite or virus in culture
Assay Conditions: Caenorhabditis elegans, 24 h, read-out: Percentage of motility inhibition 24 h, Table S2, C. elegans SS assay, 110 μM, 24 h, averages of 4 data points
Dear colleague, please return just the value in %, with no unit written.

Prompt: I have this compound here, C[C@@H]1O[C@@H](O[C@H]2[C@H](OC(=O)[C@]34CCC(C)(C)C[C@H]3C3=CC[C@@H]5[C@@]6(C)C[C@H](O)[C@H](O[C@@H]7O[C@H](CO)[C@@H](O)[C@H](O[C@@H]8O[C@H](CO)[C@@H](O)[C@H](O)[C@H]8O)[C@H]7O)C(CO)(CO)[C@@H]6CC[C@@]5(C)[C@]3(C)C[C@H]4O)OC[C@H](O)[C@@H]2O)[C@H](O)[C@H](O)[C@H]1O[C@@H]1OC[C@@H](O)[C@H](O[C@@H]2OC[C@](O)(CO)[C@H]2O)[C@H]1O [Platycodin D2] , and I need its recorded inhibition at 110 µM.
Completion: 2

Prompt: I have this compound here, `C[C@@]12C[C@@]3(O)O[C@@H](O1)[C@]1(COC(=O)c4ccccc4)[C@H]3C[C@@]12O[C@@H]1O[C@H](COC(=O)c2ccccc2)[C@@H](O)[C@H](O)[C@H]1O` , and I need its recorded inhibition at 110 µM.
Completion: 0

Prompt: I have this compound here, `C[C@@H](O)[C@H]1C(=O)N2C(C(=O)O)=C(SC3CN(C4=NCCS4)C3)[C@H](C)[C@H]12` , and I need its recorded inhibition at 110 µM.
Completion: 7

Prompt: I have this compound here, `C[C@H]1COC2(CCN(c3nc(=O)c4cc(C(F)(F)F)cc([N+](=O)[O-])c4s3)CC2)O1` , and I need its recorded inhibition at 110 µM.
Completion: 5

Prompt: I have this compound here, Clc1ccc(C(Cn2ccnc2)OCc2ccsc2Cl)c(Cl)c1 (stereo not drawn) , and I need its recorded inhibition at 110 µM.
Completion: 43

Prompt: I have this compound here, `CCN1C[C@]2(C)CC[C@H](OC)[C@@]34C1[C@]1(OCO[C@@]15C[C@H](OC)[C@H]1C[C@]3(O)[C@@H]5[C@H]1OC)[C@@H](OC(C)=O)[C@H]24` , and I need its recorded inhibition at 110 µM.
Completion: 0
